Cited source: paper PMC5540273

Tested on: PRKX
Settings: concentration: 1 μM, replicates: in singlicate; n = 1;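 further: KINOMEscan kinase panel screen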
Each entry below carries its reported %Inh.
Entry rule: numbers only, all in %.

Take a look at these entries with their results.
{"columns": ["compound", "test-value"],
 "data": [
  ["Cl.Cl.NC(CNC(=O)c1cc(Br)c(-c2ccnc3[nH]ccc23)s1)c1ccccc1 (centres unmarked)", 92.5],
  ["Nc1ncnc2scc(-c3ccc(NC(=O)Cc4cc(F)ccc4F)cc3)c12.O=C(O)C(F)(F)F", 14],
  ["COc1ccc(C2=C(Nc3cccc(O)c3)C(=O)NC2=O)cc1", 0],
  ["Fc1cc(Cl)ccc1Nc1ccnc2cc(-c3ccc(CN4CCOCC4)o3)ccc12", 24]
]}

Next item in the queue.
Input: What value of %Inh has been recorded for this entry: COc1cccc(CC(=O)N2CCc3cc(-c4cn(C)c5ncnc(N)c45)ccc32)c1
Output: 3

###

Each entry below carries its reported %Inh.
Test system: CAMKK1
Details: concentration: 1 μM, replicates: in singlicate; n = 1
Entry rule: numbers only, all in %.

{"columns": ["smiles-record", "%Inh (%)"],
 "data": [
  ["COC(=O)Nc1nc2ccc(Oc3ccc(CC(=O)Nc4cc(C(F)(F)F)ccc4F)cc3)cc2[nH]1", 0],
  ["Nc1ncc(-c2cn[nH]c2)c2scc(-c3ccc4c(c3)CCN4C(=O)Cc3ccccc3)c12", 56],
  ["CC(=O)Nc1cn2nc(Oc3cccc(NC(=O)c4cccc(C(F)(F)F)c4)c3)ccc2n1", 0]
]}

Next item in the queue.
Input: What value of %Inh has been recorded for this entry: CS(=O)(=O)c1cccc(CNc2nc(Nc3ccc4c(c3)CCC(=O)N4)ncc2C(F)(F)F)c1
Output: 20

###

Test system: CAMKK1
Settings: concentration: 1 μM, replicates: in singlicate; n = 1
measurement-name: %Inh (%)
Entry rule: numbers only, all in %.

Take a look at these entries with their results.
{"columns": ["compound", "measurement-name", "test-value"],
 "data": [
  ["Cc1nn2c(=O)cc(N3CCO[C@H](C)C3)nc2n1Cc1cccc(Cl)c1Cl", "%Inh", 20],
  ["CN(c1ccc(NC(=O)N2CCN(CCCN3CCOCC3)CC2)cc1)c1ccnc(Nc2ccc(CS(C)(=O)=O)cc2)n1.Cl", "%Inh", 19],
  ["CC(C)c1nc(-c2cccc(NS(=O)(=O)c3c(F)cccc3F)c2)c(-c2ccnc(Nc3ccc(N4CCOCC4)nc3)n2)s1.Cl", "%Inh", 14]
]}

Next item in the queue.
Input: Request: %Inh, test system CAMKK1, entry Cc1ccc(-c2ccc3occ(-c4ccc(S(C)=O)cc4)c3c2)nn1 (stereo not shown)
Output: 11

###

Each entry below carries its reported %Inh.
Test system: SRPK1
Settings: concentration: 1 μM, replicates: in singlicate; n = 1
Entry rule: numbers only, all in %.

{"columns": ["compound", "%Inh, %"],
 "data": [
  ["COc1cccc(C2=C(Nc3cccc(O)c3)C(=O)NC2=O)c1", 2]
]}

Input: What value of %Inh has been recorded for this entry: CS(=O)(=O)c1cccc(CNc2nc(Nc3ccc4c(c3)CCC(=O)N4)ncc2C(F)(F)F)c1
Output: 72

Input: What value of %Inh has been recorded for this entry: CN(C)CCNS(=O)(=O)c1ccc(-c2ccnc3[nH]ccc23)cc1
Output: 45

Input: What value of %Inh has been recorded for this entry: O=C(Nc1n[nH]c2nc(-c3cccc(O)c3)ccc12)C1CC1
Output: 45

Input: What value of %Inh has been recorded for this entry: Cc1cccc(Nc2nc(N[C@H]3CCCC[C@H]3N)ncc2C(N)=O)c1.Cl
Output: 44

Input: What value of %Inh has been recorded for this entry: COc1cccc(CC(=O)N2CCc3cc(-c4cn(C)c5ncnc(N)c45)ccc32)c1
Output: 14

###

System: GRK4
Conditions: concentration: 1 μM, replicates: in singlicate; n = 1
Returns: string. Value is 1 if measured %Inh is below 3%, and -1 if it is greater than or equal to it.

Input: Record COc1cccc(-c2nc(-c3ccccc3)[nH]c2-c2ccncc2)c1 [SB-610250] : is its %Inh strictly below 3%?
Output: 1

Input: Record CN1CCN(Cc2ccc(NC(=O)Nc3ccc(N(C)c4ccnc(Nc5ccc(CS(C)(=O)=O)cc5)n4)cc3)cc2)CC1.Cl [GW827654] : is its %Inh strictly below 3%?
Output: -1

Input: Record COc1ccc(C)c(Nc2ccnc(Nc3ccc(-c4cnc[nH]4)cc3)n2)c1.Cl [GW784041] : is its %Inh strictly below 3%?
Output: -1

###

System: EPHA2
Settings: concentration: 1 μM, replicates: in singlicate; n = 1
Each entry below carries its reported %Inh.
Entry rule: numbers only, all in %.

Take a look at these entries with their results.
{"columns": ["smiles-record", "assay-system", "unit-text", "%Inh"],
 "data": [
  ["Cc1ccc(NC(=O)c2cccc(N3CCCCC3)c2)cc1-c1ccc(C(=O)NCC2CC2)cc1", "EPHA2", "%", 33],
  ["COC(=O)Nc1nc2cc(Oc3ccc(NC(=O)Nc4cccc(SC)c4)cc3)ccc2[nH]1.Cl", "EPHA2", "%", 88]
]}

Input: What value of %Inh has been recorded for this entry: CNc1nccc(-c2ccc3c(N)n[nH]c3c2)n1
Output: 0

###

Test system: RIPK4
Details: concentration: 1 μM, replicates: in singlicate; n = 1
Each entry below carries its reported %Inh.
Entry rule: numbers only, all in %.

{"columns": ["compound", "%Inh / %"],
 "data": [
  ["Cc1cc(-c2ccnc(Nc3cccc(C#N)c3)n2)cc(C)c1O [GSK1440913]", 37],
  ["COc1cccc2c(-c3ccncc3)c(-c3ccc(F)cc3)nn12 [GW468513]", 8],
  ["N#CC1(c2cccc(C(=O)Nc3cccc(Oc4ccc5nc(NC(=O)C6CC6)sc5n4)c3)c2)CC1", 0],
  ["O=C(O)C(F)(F)F.O=c1[nH]ccc2nc(N[C@@H]3CCNC3)nc(Nc3ccc4c(c3)S(=O)(=O)CC4)c12 [GSK2181306]", 96]
]}

Input: What value of %Inh has been recorded for this entry: O=C(Nc1c(F)cccc1F)c1cc(C(=O)c2ccccc2F)c[nH]1 [GSK1326180]
Output: 0

###

Each entry below carries its reported %Inh.
Test system: CHEK2
Conditions: concentration: 1 μM, replicates: in singlicate; n = 1
Entry rule: numbers only, all in %.

Take a look at these entries with their results.
{"columns": ["compound", "%Inh / %"],
 "data": [
  ["COc1ccc(C2=C(Nc3cccc(O)c3)C(=O)NC2=O)cc1", 0],
  ["CC(=O)Nc1cn2nc(Oc3cccc(NC(=O)c4cccc(C(F)(F)F)c4)c3)ccc2n1", 0],
  ["Cl.Cl.NCC(NC(=O)c1cc(-c2cccnc2)c(-c2ccnc3[nH]ccc23)s1)c1ccccc1 (centres unmarked)", 55],
  ["CN(c1ccc(NC(=O)Nc2cccc(Cl)c2)cc1)c1ccnc(N)n1.Cl", 7],
  ["COC(=O)Nc1nc2cc(Oc3ccc(NC(=O)Nc4cccc(SC)c4)cc3)ccc2[nH]1.Cl", 28],
  ["O=C(Nc1n[nH]c2nc(-c3cccc(O)c3)ccc12)C1CC1", 25]
]}

Next item in the queue.
Input: What value of %Inh has been recorded for this entry: Nc1ncnc2scc(-c3ccc(NC(=O)Cc4cc(F)ccc4F)cc3)c12.O=C(O)C(F)(F)F
Output: 0

###

System: ALK
Settings: concentration: 1 μM, replicates: in singlicate; n = 1
Each entry below carries its reported %Inh.
Entry rule: numbers only, all in %.

Take a look at these entries with their results.
{"columns": ["molecule", "unit-text", "test-value"],
 "data": [
  ["CCNc1nccc(-c2c(-c3ccc(F)cc3)ncn2C2CCN(C)CC2)n1", "%", 0],
  ["O=C1NC(=O)C(c2ccccc2Cl)=C1Nc1cccc(Cl)c1 [SB-342409]", "%", 41],
  ["O=C(Nc1n[nH]c2nc(-c3ccccc3)ccc12)C1CC1 [SB-708999]", "%", 3],
  ["Cn1cc(-c2ccc3c(c2)CCN3C(=O)Cc2cc(F)cc(F)c2F)c2c(N)ncnc21 [GSK2634140]", "%", 8],
  ["Cc1ccc(NC(=O)c2ccnc(N3CCCCC3)c2)cc1-c1ccc(C(=O)NCC2CC2)cc1 [GW775610]", "%", 10],
  ["COc1cccc(NC(=O)NCCNc2ccnc(Nc3ccc(F)cc3)n2)c1 [GSK1379879]", "%", 36],
  ["COc1cc(Nc2nccc(N3CCC(NC(=O)Nc4ccc5c(c4)OCO5)C3)n2)cc(OC)c1OC (stereo not drawn) [GSK1379766]", "%", 63],
  ["Cc1ccc(Nc2ccnc(Nc3ccc(C)c(F)c3)n2)cc1O.Cl [GW582868]", "%", 38],
  ["COc1cccc(-c2nc(-c3ccccc3)[nH]c2-c2ccncc2)c1 [SB-610250]", "%", 18],
  ["Cc1ccc(O)cc1Nc1ccnc2ccc(C(C)(C)C)cc12 [GW856805]", "%", 44]
]}

Input: Request: %Inh, test system ALK, entry CSc1ccc(NC2=C(c3ccc(Cl)cc3)C(=O)NC2=O)cc1 [SB-317658]
Output: 0

Input: Request: %Inh, test system ALK, entry Cn1cc(-c2cnc(N)c3c(-c4ccc5c(c4)CCN5C(=O)Cc4ccccc4)csc23)cn1 [GSK2593074]
Output: 0
